# procedure.summary: Solubility measurements of astaxanthin form I and II in different solvents
# Assay type: physicochemical
observable: solubility

What does the record list as solubility for CC1=C(/C=C/C(C)=C/C=C/C(C)=C/C=C/C=C(C)/C=C/C=C(C)/C=C/C2=C(C)C(=O)[C@@H](O)CC2(C)C)C(C)(C)C[C@H](O)C1=O (relative stereo) [form I, all-trans-astaxanthin] ?
10 to 20 mg/mL
